- System: EKVX NSCLC
- measurement description: NCI-60 one-dose screen, 48 h (100 = growth as untreated, 0 = no growth, -100 = all killed)
- condition context: 10 µM unless noted
This is part of a sample that, as a whole, favours compounds with a hit. Of some 83,000 tested, about 20% had one in any assay.
endpoint name: growth (%)
Give the number; % is assumed, so skip it.

**Q:** Request the reported growth associated with O=C(CN1CCN(c2cc(=O)n(-c3ccccc3)c3ccccc23)CC1)Nc1nc(-c2ccc(Cl)cc2)cs1
**A:** 42.7

**Q:** Request the reported growth associated with COc1ccc2c(c1)c(-c1cc(N)n3nc(-c4cn(C)c5ccc(OC)cc45)cc3n1)cn2C
**A:** 107

**Q:** Request the reported growth associated with CS(=O)(=O)c1ccc(-c2nn(-c3ccccc3)cc2/C=N/NC(=O)c2nc(N)n[nH]2)cc1
**A:** 90.3

**Q:** Request the reported growth associated with O=C(CSc1nc2ccccc2c(=O)n1-c1ccccc1)Nc1cccc(C(=O)/C=C/c2ccccc2)c1
**A:** 96.7

**Q:** Request the reported growth associated with C=CC(=O)N1CC=C(c2cc3c(N[C@H](C)c4ccccc4)ncnc3[nH]2)CC1
**A:** 30.5
